tested on: C. parvum AUCP-1 isolate; test: In vitro C. parvum growth inhibition in HCT-8 cells, immunofluorescence assay; format: cell-based, Cryptosporidium parvum; conditions: Cryptosporidium parvum, HCT-8, read-out: Parasite IC50 C. parvum 0h p.i
IC50 less than 9 µM is t; IC50 greater than or equal to 9 µM is f.

molecule	qualitative-label
CC(C)(NC(=O)c1cc2c(Cl)cc(Cl)cc2[nH]1)c1cn(Cc2cccc(Cl)c2)nn1	t
CC(C)(NC(=O)c1cc2c(Cl)cc(Cl)cc2[nH]1)c1cn(Cc2ccccc2)nn1	f
C#CC(C)(C)NC(=O)c1cc2c(Cl)cc(Cl)cc2[nH]1	f
CC(C)(NC(=O)c1cc2c(Cl)cc(Cl)cc2[nH]1)c1cn(Cc2ccc(Cl)c(Cl)c2)nn1	t
CC(C)(NC(=O)c1cc2c(Cl)cc(Cl)cc2[nH]1)c1cn(Cc2ccccc2Cl)nn1	t
NC[C@@H]1O[C@H](O[C@H]2[C@@H](O)[C@H](O[C@@H]3[C@@H](O)[C@H](N)C[C@H](N)[C@H]3O[C@H]3O[C@H](CO)[C@@H](O)[C@H](O)[C@H]3N)O[C@@H]2CO)[C@H](N)[C@@H](O)[C@@H]1O [PMO, paromomycin, reference compound]	f

###

tested on: T. gondii type II ME49 strain; assay: In vitro T. gondii type II ME49; type: cell-based; conditions: Toxoplasma gondii, HFF, 48 h, read-out: IC50 against T. gondii Type II (ME49) in HFF cells
pIC50: −log10 of the molar value.
property-name: pIC50

> print(dat)
                                   compound  property.name  measured.number
1  CC1(C)COC(c2ccc(-c3cn(C45CC6CC(CC(C6)C4)C5)nn3)cc2)OC1 [JS-2-41]          pIC50             5.82
2  CC(C)(NC(=O)c1cc2c(Cl)cc(Cl)cc2[nH]1)c1cn(Cc2ccc(Cl)c(Cl)c2)nn1 [JS-2-44]          pIC50             4.98

###

// values below are reported IC50 at 48 h
assay: WST-1 cytotoxicity assay in uninfected HFF cells; type: cell-based; details: human
property-name: IC50 at 48 h

> print(dat)
                                   molecule  result
1  CC1(C)COC(c2ccc(-c3cn(C45CC6CC(CC(C6)C4)C5)nn3)cc2)OC1 [JS-2-41]  168 µM
2  CC(C)(NC(=O)c1cc2c(Cl)cc(Cl)cc2[nH]1)c1cn(Cc2ccc(Cl)c(Cl)c2)nn1 [JS-2-44]  209 µM
3  CC(C)(NC(=O)c1cc2c(F)cc(F)cc2[nH]1)c1cn(C23CC4CC(CC(C4)C2)C3)nn1 [JS-2-19]  108 µM
4  CC(C)(NC(=O)c1cc2c(Cl)cc(Cl)cc2[nH]1)c1cn(Cc2ccccc2Cl)nn1 [JS-2-28]  209 µM
5  CC(C)(NC(=O)c1cc2c(Cl)cc(Cl)cc2[nH]1)c1cn(C23CC4CC(CC(C4)C2)C3)nn1 [JS-2-31]  135 µM
6  CC(C)(NC(=O)c1cc2c(Cl)cc(Cl)cc2[nH]1)c1cn(Cc2cccc(Cl)c2)nn1 [JS-2-30]  268 µM

###

// values below are reported IC50 at 48 h
test: WST-1 cytotoxicity assay in uninfected HCT-8 cells; assay type: cell-based; settings: human
property-name: IC50 at 48 h (µM)

> print(dat)
                                smiles.input  property.name  measured.number
 1    C#CC(C)(C)NC(=O)c1cc2c(F)cc(F)cc2[nH]1   IC50 at 48 h              109
 2  c1ccc(-c2cn(C34CC5CC(CC(C5)C3)C4)nn2)cc1   IC50 at 48 h              135
 3  CC(C)(NC(=O)c1cc2c(F)cc(F)cc2[nH]1)c1cn(Cc2ccc(Cl)c(Cl)c2)nn1   IC50 at 48 h              174
 4  C#CC(C)(C)NC(=O)c1cc2c(Cl)cc(Cl)cc2[nH]1   IC50 at 48 h              101
 5  CC(C)(NC(=O)c1cc2c(Cl)cc(Cl)cc2[nH]1)c1cn(Cc2ccccc2)nn1   IC50 at 48 h              254
 6  CC(C)(NC(=O)c1cc2c(F)cc(F)cc2[nH]1)c1cn(Cc2ccccc2)nn1   IC50 at 48 h              205
 7  CC(C)(NC(=O)c1cc2c(Cl)cc(Cl)cc2[nH]1)c1cn(Cc2ccc(Cl)c(Cl)c2)nn1   IC50 at 48 h              210
 8  CC(C)(NC(=O)c1cc2c(F)cc(F)cc2[nH]1)c1cn(Cc2ccccc2Cl)nn1   IC50 at 48 h              107
 9  CC(C)(NC(=O)c1cc2c(Cl)cc(Cl)cc2[nH]1)c1cn(Cc2cccc(Cl)c2)nn1   IC50 at 48 h              193
10  CC(C)(NC(=O)c1cc2c(Cl)cc(Cl)cc2[nH]1)c1cn(Cc2ccccc2Cl)nn1   IC50 at 48 h              233
